B1: FAM46D (parent)
chain: FQEAMTHLQHKLICTRKPEEIRGG

variants of: B1; experiment: protein stability index of a GFP-peptide fusion (GPS, HEK-293T) (PSI 1-6); higher = more stable; settings: c terminus: a fixed tail appended;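 further: lentivirally expressed fusions sorted by FACS into six bins by GFP to DsRed ratio, PSI derived from sequencing read proportions per bin multiplied by bin number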
QUANTITY KIND: protein stability index
No unit in the answer, please; the number alone is enough.

Prompt: Identify measured protein stability index corresponding to H7Q
Response: 2.93

Prompt: Identify measured protein stability index corresponding to H10E
Response: 3.79

Prompt: Identify measured protein stability index corresponding to G24Y
Response: 2.59

Prompt: Identify measured protein stability index corresponding to H10S
Response: 2.5

Prompt: Identify measured protein stability index corresponding to E19N
Response: 2.53

Prompt: Identify measured protein stability index corresponding to A4Q
Response: 2.98

Prompt: Identify measured protein stability index corresponding to I21Y
Response: 2.21

Prompt: Identify measured protein stability index corresponding to I13P
Response: 2.95

Prompt: Identify measured protein stability index corresponding to G24L
Response: 2.45

Prompt: Identify measured protein stability index corresponding to F1K
Response: 3.61

Prompt: Identify measured protein stability index corresponding to I13T
Response: 2.52

Prompt: Identify measured protein stability index corresponding to G23N
Response: 3.01
